tested on: MCF7 complex spheroid growth, % test/control; assay: Anticancer human tumor MCF7 cell line growth inhibition [Asc]; settings: second compound 1 µM; first compound 0.316 µM; hits give low values;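 further: spheroids exposed to compounds for 7 days; 100% = DMSO vehicle control wells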
Observed Property: viability, T/C (%)
Your answer is read as %, so omit the unit and give the number.

For the molecule O=C(c1ccc(F)c(F)c1Nc1ccc(I)cc1F)N1CC(O)([C@@H]2CCCCN2)C1 + Cc1c(S(C)(=O)=O)c(-c2cc(F)cc(N3CCN(c4ccc(NS(=O)(=O)c5ccc(NC(CCN6CCC(C(=O)OCCCP(=O)(O)O)CC6)CSc6ccccc6)c(S(=O)(=O)C(F)(F)F)c5)cc4)CC3)c2)c(-c2ccc(Cl)cc2)n1C(C)C , give its measured viability, T/C value. 109

Return value of viability, T/C for input C#Cc1c(F)ccc2cc(O)cc(-c3ncc4c(N5CC6CCC(C5)N6)nc(OCC56CCCN5CC(F)C6)nc4c3F)c12 (stereo not drawn) + CNC(C)C(=O)NC1CN(S(=O)(=O)c2cccc(S(=O)(=O)N3CCC4CCC(C(=O)NC(c5ccccc5)c5ccccc5)N4C(=O)C(NC(=O)C(C)NC)C3)c2)CCC2CCC(C(=O)NC(c3ccccc3)c3ccccc3)N2C1=O , no commentary. 13

Quote viability, T/C reported for C=C(F)C(=O)N1CCN(c2nc(OCC3CCCN3C)nc3c2CCN(c2cccc4cccc(Cl)c24)C3)CC1CC#N (stereo not drawn) + Cc1c(S(C)(=O)=O)c(-c2cc(F)cc(N3CCN(c4ccc(NS(=O)(=O)c5ccc(NC(CCN6CCC(C(=O)OCCCP(=O)(O)O)CC6)CSc6ccccc6)c(S(=O)(=O)C(F)(F)F)c5)cc4)CC3)c2)c(-c2ccc(Cl)cc2)n1C(C)C please. 87.1
